- targetUnderTest: Platelet-activating factor acetylhydrolase (Homo sapiens, UniProt Q13093)
- Sequence (Q13093 whole entry): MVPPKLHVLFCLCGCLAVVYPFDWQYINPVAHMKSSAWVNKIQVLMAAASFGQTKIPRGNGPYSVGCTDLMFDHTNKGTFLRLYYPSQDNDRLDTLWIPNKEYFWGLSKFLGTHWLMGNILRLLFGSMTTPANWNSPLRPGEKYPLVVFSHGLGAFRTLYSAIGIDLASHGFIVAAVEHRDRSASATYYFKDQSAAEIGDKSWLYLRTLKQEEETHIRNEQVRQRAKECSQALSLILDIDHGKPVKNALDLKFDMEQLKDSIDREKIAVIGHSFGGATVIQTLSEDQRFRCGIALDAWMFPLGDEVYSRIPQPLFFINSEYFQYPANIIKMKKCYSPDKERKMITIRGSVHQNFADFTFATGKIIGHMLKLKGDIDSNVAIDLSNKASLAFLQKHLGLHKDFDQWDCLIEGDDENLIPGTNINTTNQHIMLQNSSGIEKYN
- protocol: Inhibition of lipoprotein-associated phospholipase A2 (Lp-PLA2)
quantityKind: IC50 (nM)

{"molecularString": "O=c1[nH]c(SCCCCCCCCc2cccc(Cl)c2)ncc1Cc1cccnc1", "targetUnderTest": "Platelet-activating factor acetylhydrolase (Homo sapiens, UniProt Q13093)", "reportedResult": 850}

(I) Oc1nc(SCCCCCCCCc2ccc(Cl)cc2)ncc1Cc1cccnc1
(II) O=C(CCCCCCCSc1ncc(Cc2cccnc2)c(O)n1)c1ccc(Cl)cc1
Pick one: I or II . Which has the bigger IC50 number? Kindly give the label for the entry you pick. I

###

- targetUnderTest: UniProt Q13093
- protocol: The compound was tested for inhibition of Lipoprotein-associated phospholipase A2 (Lp-PLA2) at 10 uM
quantityKind: inhibition (%)

Here's what some known entries look like.
{"molecularString": "Oc1nc(SCCCCCCCCc2ccccc2)ncc1Cc1ccccc1", "targetUnderTest": "UniProt Q13093", "quantityKind": "inhibition", "reportedResult": 0}
{"molecularString": "Oc1nc(SCCCCCCCCc2ccccc2)ncc1Cc1ccccn1", "targetUnderTest": "UniProt Q13093", "quantityKind": "inhibition", "reportedResult": 38}
{"molecularString": "O=C(NCCCCCCSc1ncc(Cc2cccnc2)c(O)n1)c1ccc(Cl)cc1", "targetUnderTest": "UniProt Q13093", "quantityKind": "inhibition", "reportedResult": 41}

(a) O=C(CSc1ncc(Cc2cccnc2)c(O)n1)c1ccccc1
(b) Cc1nc(SCCCCCCCC(=O)c2ccc(Cl)cc2)nc(O)c1Cc1cccnc1
(c) Oc1nc(SCCCCCCCCc2ccccc2)ncc1Cc1ccoc1
Could you please sort these 3 entries by inhibition from high to low? Hello, could you send the labels back in the order asked? Thank you. c, b, a

###

Sequence of the target: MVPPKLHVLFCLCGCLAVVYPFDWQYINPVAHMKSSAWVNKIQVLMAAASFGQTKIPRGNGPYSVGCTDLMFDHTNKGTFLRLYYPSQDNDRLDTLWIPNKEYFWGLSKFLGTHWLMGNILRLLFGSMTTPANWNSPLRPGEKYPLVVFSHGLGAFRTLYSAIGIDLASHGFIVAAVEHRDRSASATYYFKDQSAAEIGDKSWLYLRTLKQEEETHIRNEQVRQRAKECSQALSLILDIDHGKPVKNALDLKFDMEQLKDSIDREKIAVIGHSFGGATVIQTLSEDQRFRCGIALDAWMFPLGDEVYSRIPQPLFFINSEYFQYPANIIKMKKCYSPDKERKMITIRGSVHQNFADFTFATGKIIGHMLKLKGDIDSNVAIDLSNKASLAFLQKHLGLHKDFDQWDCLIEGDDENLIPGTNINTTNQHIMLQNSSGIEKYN
pIC50: −log10 of the molar value.
quantityKind: pIC50

Here's what some known entries look like.
{"compound": "O=c1[nH]c(SCc2ccc(Cl)cc2)ncc1Cc1cccnc1", "pIC50": 5.36}
{"compound": "CCCCn1ccc(Cc2cnc(SCCCCCCCCc3ccccc3)nc2O)cc1=O", "pIC50": 6.11}
{"compound": "[O-][S+](CCCCCCCSc1ncc(Cc2cccnc2)c(O)n1)c1ccc(Cl)cc1 (stereo unspecified)", "pIC50": 4.77}
{"compound": "Oc1nc(SCCCCCCCCCc2ccccc2)ncc1Cc1cccnc1", "pIC50": 6.37}
{"compound": "Cc1ccc(Cc2cnc(SCCCCCCCCCc3ccccc3)nc2O)cn1", "pIC50": 6.00}
{"compound": "O=C(CCCCCCCCSc1ncc(Cc2cccnc2)c(=O)[nH]1)c1ccc(Cl)cc1", "pIC50": 6.19}

(1) Oc1nc(SCCCCCCCSc2ccc(Cl)cc2)ncc1Cc1cccnc1
(2) O=C(CCCCCCCSc1ncc(Cc2cccnc2)c(O)n1)c1cccs1
(3) O=c1[nH]c(SCCCCCCCCc2ccccc2)ncc1Cc1ccncc1
(4) O=c1[nH]c(SCc2ccccc2)ncc1Cc1ccncc1
In this exercise, place the 4 compounds in ascending sequence of their recorded pIC50. Labels, ranked as asked. 4, 2, 3, 1

// data source = ChEMBL document CHEMBL1133399
